Tested on: hot plate stimulus
method_description: Mouse hot plate test
Assay type: in vivo
condition_parameters: dose 100 mg/kg, time 60 min.
Non-standard residues stand in square brackets, D forms with d. Residues, ends and D or L forms follow the SMILES beside them. dNle = CCCC[C@@H](N)C(=O)O; Orn = NCCC[C@H](N)C(=O)O; Nva = CCC[C@H](N)C(=O)O
For each of the molecules below, state its % of animals showing a 50% increase.
Please make sure the unit comes right after the number.

Lab note: each molecule below needs its % of animals showing a 50% increase filled in.
1. CC(C)[C@@H](NC(=O)[C@@H](N)Cc1ccc(O)cc1)C(=O)N[C@@H](Cc1ccccc1)C(=O)N[C@@H](CCCN)C(N)=O [BCH-2458, H-Tyr-D-Val-Phe-Orn-NH2] (H-Y[dV]F[Orn]-NH2)
2. C[C@@H](NC(=O)[C@@H](N)Cc1ccc(O)cc1)C(=O)N[C@@H](Cc1ccccc1)C(=O)N[C@@H](CCCCN)C(N)=O [BCH-1789, H-Tyr-D-Ala-Phe-Lys-NH2] (H-Y[dA]FK-NH2)
3. CC[C@@H](C)[C@@H](NC(=O)[C@@H](N)Cc1ccc(O)cc1)C(=O)N[C@@H](Cc1ccccc1)C(=O)N[C@@H](CCCN)C(N)=O [BCH-2456, H-Tyr-D-Ile-Phe-Orn-NH2] (H-Y[dI]F[Orn]-NH2)
4. CCC[C@H](NC(=O)[C@H](Cc1ccccc1)NC(=O)[C@@H](CCCNC(=N)N)NC(=O)[C@@H](N)Cc1ccc(O)cc1)C(N)=O [BCH-1788, H-Tyr-D-Arg-Phe-Nva-NH2] (H-Y[dR]F[Nva]-NH2)
5. CCCC[C@@H](NC(=O)[C@@H](N)Cc1ccc(O)cc1)C(=O)N[C@@H](Cc1ccccc1)C(=O)N[C@@H](CCCCN)C(N)=O [BCH-2205, H-Tyr-D-Nle-Phe-Lys-NH2] (H-Y[dNle]FK-NH2)

1. 55%
2. 80%
3. 50%
4. 60%
5. 60%
